TEST_TARGET: Aβ42 (Homo sapiens, UniProt P05067)
Sequence (P05067 672-713): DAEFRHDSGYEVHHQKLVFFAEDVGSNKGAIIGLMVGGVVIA
PROCEDURE_SUMMARY: Th-T (thioflavin-T) assay of Aβ42 aggregation
Assay type: biochemical
CONDITION_PARAMETERS: time-course reading M106; Supplementary Fig. 47 source data
MEASURED_PARAMETER: Th-T fluorescence, mean of three wells
In your answer, state the number alone without any accompanying words.

Reference set, count: 2
C=C1CCC2C(C)(CC(=O)C=C(C)C)C(O)CCC2(C)C1Cc1c(OC)oc(CO)c(C)c1=O (stereo not shown) | 3.655
CC(C)=CCC/C(C)=C/CC/C(C)=C/CC/C(C)=C/Cc1c(O)c(C)c(C)oc1=O | 2.949

# input Would you kindly share the measured Th-T fluorescence, mean of three wells for C=C1CC[C@H]2[C@]3(C)C[C@@H](C=C(C)C)O[C@H]3CC[C@]2(C)[C@@H]1Cc1c(OC)oc(CO)c(C)c1=O ?
# output 3.704

# input For C=C1CC[C@H]2[C@]3(C)C[C@H](C=C(C)C)O[C@H]3CC[C@]2(C)[C@@H]1Cc1c(O)c(C)c(C)oc1=O then?
# output 3.076

---

TEST_TARGET: Aβ42 (Homo sapiens, UniProt P05067)
PROCEDURE_SUMMARY: Th-T (thioflavin-T) assay of Aβ42 aggregation
Format: biochemical
CONDITION_PARAMETERS: reading M32; Supplementary Fig. 47 source data
MEASURED_PARAMETER: Th-T fluorescence, mean of three wells
The response must contain the number and no unit.

C=C1CCC2C(C)(CC(=O)C=C(C)C)C(O)CCC2(C)C1Cc1c(OC)oc(CO)c(C)c1=O (stereo not shown) | 3.313
C=C1CC[C@H]2[C@]3(C)C[C@@H](C=C(C)C)O[C@H]3CC[C@]2(C)[C@@H]1Cc1c(OC)oc(CO)c(C)c1=O | 3.025
C=C1CCC2C3(C)CC(C=C(C)C)OC3CCC2(C)C1Cc1c(OC)oc(C)c(C)c1=O (stereo not shown) | 3.833
C=C1CCC2C(C)(CC(=O)C=C(C)C)C(O)CCC2(C)C1Cc1c(OC)oc(C)c(C)c1=O (stereo not shown) | 3.711
C=C1CCC2C(C)(CCC=C(C)C)C(=O)CCC2(C)C1Cc1c(O)c(C)c(C)oc1=O (stereo not shown) | 2.109
C=C1CC[C@H]2[C@]3(C)C[C@H](C=C(C)C)O[C@H]3CC[C@]2(C)[C@@H]1Cc1c(OC)oc(CO)c(C)c1=O | 3.7502

# evaluate next
# input For C=C1CC[C@H]2[C@]3(C)C[C@H](C=C(C)C)O[C@H]3CC[C@]2(C)[C@@H]1Cc1c(O)c(C)c(C)oc1=O , what is its reported Th-T fluorescence, mean of three wells?
# output 2.941

---

The reader will find reported Luminescence Raw1 values listed item by item below.
Test system: l(2)mbn cells
PROCEDURE_SUMMARY: cytotoxicity in Drosophila l(2)mbn cells
Format: cell-based
CONDITION_PARAMETERS: 0.2 µM, replicate 1
// no unit string in output, number only

Reference set, count: 3
C=C1CCC2C(C)(CCC=C(C)C)C(O)CCC2(C)C1Cc1c(O)c(C)c(C)oc1=O (stereo not shown) [Compound 4] | 5720253
C=C1CCC2C(C)(CCC=C(C)C)C(O)CCC2(C)C1Cc1c(OC)oc(CO)c(C)c1=O (stereo not shown) [Compound 12] | 4007302
C=C1CC[C@H]2[C@]3(C)C[C@H](C=C(C)C)O[C@H]3CC[C@]2(C)[C@@H]1Cc1c(OC)oc(CO)c(C)c1=O [Compound 18] | 3357960

As a next step, examine the compound that follows.
# input Record request: Luminescence Raw1 value, item C=C1CCC2C(C)(CCC=C(C)C)C(O)CCC2(C)C1Cc1c(OC)oc(C)c(C)c1=O (stereo not shown) [Compound 11]
# output 5752008

---

Documented Th-T assay signal, mean of three wells (Fig. 7a) across a set of compounds
TEST_TARGET: Aβ42 (Homo sapiens, UniProt P05067)
PROCEDURE_SUMMARY: Th-T (thioflavin-T) assay of Aβ42 aggregation
Format: biochemical
CONDITION_PARAMETERS: column suffix _10; reading M3
# answer = number (no unit)

Example compounds with recorded Th-T assay signal, mean of three wells (Fig. 7a):
C=C1CC[C@@H]2[C@](C)(CC[C@H]3O[C@H](C=C(C)C)C[C@@]23C)[C@@H]1Cc1c(OC)oc(CO)c(C(=O)OC)c1=O [Compound 21] | 0.2449
C=C1CCC2C(C)(CCC=C(C)C)C(O)CCC2(C)C1Cc1c(OC)oc(CO)c(C(=O)OC)c1=O (centres unmarked) [Compound 13] | 0.25

# input What value of measured Th-T assay signal, mean of three wells (Fig. 7a) is listed for C=C1CCC2C(C)(CCC=C(C)C)C(O)CCC2(C)C1Cc1c(OC)oc(C)c(C(=O)OC)c1=O (centres unmarked) [Compound 14] ?
# output 0.2333

# input Cool, now C=C1CC[C@@H]2[C@](C)(CC[C@H]3O[C@H](C=C(C)C)C[C@@]23C)[C@@H]1Cc1c(OC)oc(CO)c(C)c1=O [Compound 20]
# output 0.2762

# input Same again, this time with C=C1CCC2C(C)(CCC=C(C)C)C(O)CCC2(C)C1Cc1c(OC)oc(CO)c(C)c1=O (centres unmarked) [Compound 12]
# output 0.2633

---

Here, each record is paired with measured viability at 10 µM data.
PROCEDURE_SUMMARY: cytotoxicity in Drosophila DL1 cells
Type: cell-based
CONDITION_PARAMETERS: Drosophila, DL1 cells (embryonic macrophage-derived), DL1 cells, 10 µM, replicate 2, relative to DMSO 1%; read-out: % viability, viability 2
Express your answer in %, writing the number without its unit.

Previously resolved entries follow.
C=C1CCC2C(C)(CC(=O)C=C(C)C)C(O)CCC2(C)C1Cc1c(OC)oc(C)c(C)c1=O (stereo not shown) | 127
C=C1CC[C@H]2[C@]3(C)C[C@H](C=C(C)C)O[C@H]3CC[C@]2(C)[C@@H]1Cc1c(OC)oc(CO)c(C)c1=O | 6.3
C=C1CC[C@@H]2[C@](C)(CC[C@H]3O[C@H](C=C(C)C)C[C@@]23C)[C@@H]1Cc1c(OC)oc(CO)c(C)c1=O | 19.2

Kindly consider the entry below.
# input Could you tell me which viability at 10 µM is on file for C=C1CCC2C(C)(CCC=C(C)C)C(O)CCC2(C)C1Cc1c(O)c(C)c(C)oc1=O (stereo not shown) ?
# output 21.1

---

TEST_TARGET: Aβ42 (Homo sapiens, UniProt P05067)
PROCEDURE_SUMMARY: Th-T (thioflavin-T) assay of Aβ42 aggregation
Format: biochemical
CONDITION_PARAMETERS: reading M30; Supplementary Fig. 47 source data
Given measured Th-T fluorescence, mean of three wells, output Y if it is greater than or equal to 3 and N if not.

Some entries whose results are on file:
C=C1CCC2C3(C)CC(C=C(C)C)OC3CCC2(C)C1Cc1c(OC)oc(C)c(C)c1=O (stereo not drawn) | Y
C=C1CCC2C(C)(CC(=O)C=C(C)C)C(O)CCC2(C)C1Cc1c(O)c(C)c(C)oc1=O (stereo not drawn) | Y
C=C1CCC2C(C)(CC(=O)C=C(C)C)C(O)CCC2(C)C1Cc1c(OC)oc(CO)c(C)c1=O (stereo not drawn) | Y
C=C1CC[C@H]2[C@]3(C)C[C@@H](C=C(C)C)O[C@H]3CC[C@]2(C)[C@@H]1Cc1c(O)c(C)c(C)oc1=O | N
C=C1CC[C@H]2[C@]3(C)C[C@H](C=C(C)C)O[C@H]3CC[C@]2(C)[C@@H]1Cc1c(O)c(C)c(C)oc1=O | N

# input Determine whether measured Th-T fluorescence, mean of three wells meets or exceeds 3 for C=C1CCC2C(C)(CC(=O)C=C(C)C)C(O)CCC2(C)C1Cc1c(OC)oc(C)c(C)c1=O (stereo not drawn)
# output Y

# input Another compound to check: C=C1CC[C@H]2[C@]3(C)C[C@H](C=C(C)C)O[C@H]3CC[C@]2(C)[C@@H]1Cc1c(OC)oc(C)c(C)c1=O
# output Y

# input Query C=C1CC[C@H]2[C@]3(C)C[C@H](C=C(C)C)O[C@H]3CC[C@]2(C)[C@@H]1Cc1c(OC)oc(CO)c(C)c1=O next
# output Y

# input Same again, this time with C=C1CCC2C(C)(CCC=C(C)C)C(=O)CCC2(C)C1Cc1c(O)c(C)c(C)oc1=O (stereo not drawn)
# output N

# input Queued: CC(C)=CCC/C(C)=C/CC/C(C)=C/CC/C(C)=C/Cc1c(O)c(C)c(C)oc1=O
# output N

---

TEST_TARGET: Aβ42 (Homo sapiens)
PROCEDURE_SUMMARY: Th-T (thioflavin-T) assay of Aβ42 aggregation
Assay type: biochemical
CONDITION_PARAMETERS: column suffix _50; reading M12
Hi! Just check whether Th-T assay signal, mean of three wells (Fig. 7a) is below 0.2. Below gives Fulfilled, equal or above gives Not fulfilled.

C=C1CCC2C(C)(CCC=C(C)C)C(O)CCC2(C)C1Cc1c(OC)oc(CO)c(C)c1=O (centres unmarked) | Not fulfilled
C=C1CC[C@@H]2[C@](C)(CC[C@H]3O[C@H](C=C(C)C)C[C@@]23C)[C@@H]1Cc1c(OC)oc(CO)c(C(=O)OC)c1=O | Not fulfilled
C=C1CC[C@@H]2[C@](C)(CC[C@H]3O[C@H](C=C(C)C)C[C@@]23C)[C@@H]1Cc1c(OC)oc(CO)c(C)c1=O | Not fulfilled
C=C1CCC2C(C)(CCC=C(C)C)C(O)CCC2(C)C1Cc1c(OC)oc(CO)c(C(=O)OC)c1=O (centres unmarked) | Fulfilled

Now look at this one.
# input Regarding C=C1CCC2C(C)(CCC=C(C)C)C(O)CCC2(C)C1Cc1c(OC)oc(C)c(C(=O)OC)c1=O (centres unmarked) , kindly confirm whether its Th-T assay signal, mean of three wells (Fig. 7a) is beneath 0.2.
# output Not fulfilled
